# maps each entry to its INHIBITION
System: Plasmodium berghei
assayInfo: Screen against P. berghei liver stage (PbLuc), transformed with Luciferase, at 10uM
Type: functional, HepG2
testSettings: tested at 10 uM
Screen size: about 69,000 compounds; about 8,600 (12%) showed an effect of 50% or more. The sample as a whole holds a higher share of strong results than the screen did.
Entry rule: numbers only, all in %.

>  <compound>
O=S(=O)(C1CC1)N1CCOCC2(CCN(c3ccccn3)C2)C1 (stereo unspecified)

>  <targetOrSystem>
Plasmodium berghei

>  <assayEndpoint>
INHIBITION

>  <observedResult>
-26.1

$$$$
>  <compound>
CCN1CCN(S(=O)(=O)c2cc(Cl)c(Cl)cc2C)CC1

>  <targetOrSystem>
Plasmodium berghei

>  <assayEndpoint>
INHIBITION

>  <observedResult>
61.8

$$$$
>  <compound>
CC(C)CCC(=O)NCCc1ccn(-c2ccccc2)n1

>  <targetOrSystem>
Plasmodium berghei

>  <assayEndpoint>
INHIBITION

>  <observedResult>
5.7

$$$$
>  <compound>
c1cnc2c(CN3CCCCC3c3ccncn3)cnn2c1 (stereo unspecified)

>  <targetOrSystem>
Plasmodium berghei

>  <assayEndpoint>
INHIBITION

>  <observedResult>
16.5

$$$$

Sample O=C(N1CCOCC1)N1CCc2ncnc(Oc3cccnc3)c2CC1 ; INHIBITION observed: 0.734

Sample O=c1c(=CS(=O)(=O)Nc2ccccc2)[nH]c(=O)n2cccc12 ; INHIBITION observed: -63.5

----------
Tested on: Plasmodium berghei
assayInfo: Screen against P. berghei liver stage (PbLuc), transformed with Luciferase, at 10uM
Format: functional, HepG2
testSettings: tested at 10 uM
About 8,600 (12%) of roughly 69,000 compounds showed an effect of 50% or more. The full list was thinned out, with strong results kept by preference.
assayEndpoint: INHIBITION (%)
Entry rule: numbers only, all in %.

// worked examples, INHIBITION included
>  <molecule>
O=C1NCCN1C1CCN(CC(O)c2ccccc2F)CC1 (stereo unspecified)

>  <observedResult>
0.45

$$$$
>  <molecule>
Cn1nnnc1SC1CCCN(c2cccc(F)c2)C1=O (stereo unspecified)

>  <observedResult>
-12.4

$$$$

Sample O=C1NCCN1C1CCN(CCc2cccs2)CC1 ; INHIBITION observed: 29.5

Sample CCc1nc(C2CCCN(C(=O)NC3CC3)C2)no1 (stereo unspecified) ; INHIBITION observed: -81.1

Sample O=C1NCCN1C1CCN(CCOc2cccc3ccccc23)CC1 ; INHIBITION observed: 69.1

Sample COc1ccc(OC)c(C(O)CNC(=O)Nc2cc(C)nn2C)c1 (stereo unspecified) ; INHIBITION observed: 10.35

----------
Tested on: Plasmodium berghei
assayInfo: Screen against P. berghei liver stage (PbLuc), transformed with Luciferase, at 10uM
Format: functional, HepG2
testSettings: tested at 10 uM
Among all 69,000 compounds or so, about 8,600 (12%) showed an effect of 50% or more. Only a selection was taken, and strong results are over-represented in it overall.
assayEndpoint: INHIBITION (%)
Entry rule: numbers only, all in %.

// worked examples, INHIBITION included
>  <compound>
COc1cc(CNCC(O)c2ccc(F)cc2F)cc2c1OCO2 (stereo unspecified)

>  <INHIBITION [%]>
0.914

$$$$
>  <compound>
FC(F)Oc1ccc(CNCc2cc(Br)c3c(c2)OCO3)cc1

>  <INHIBITION [%]>
80.8

$$$$
>  <compound>
COc1cc(CNCc2ccc(C(C)O)cc2)cc2c1OCO2 (stereo unspecified)

>  <INHIBITION [%]>
49.3

$$$$
>  <compound>
Cc1ccc(CNCc2cc(Br)c3c(c2)OCO3)cc1

>  <INHIBITION [%]>
45.4

$$$$
>  <compound>
FC(F)Oc1ccc(CNCc2cc(Cl)c3c(c2)OCO3)cc1

>  <INHIBITION [%]>
24.6

$$$$

Next compound, please.
Sample FC(F)Oc1ccccc1CNCc1cc(Br)c2c(c1)OCO2 ; INHIBITION observed: 58.6
